Where do the numbers come from? From patent US8524740B2.

# System: HL-60, HCT-116, Hep3B, H-460
# EXPERIMENT: Cytotoxicity screen (MTT) against human cancer cell lines, results in words
# Type: cell-based
# DETAILS: comparison within sub-series or with CHM-2133

CHEMICAL_STRUCTURE	cytotoxicity (in words)
O=C1CC(c2cccc(F)c2)=Nc2ccc(O)c(O)c21	greater cytotoxicity
COc1cc2c(cc1O)N=C(c1cccc(F)c1)CC2=O	greater cytotoxicity
O=C1CC(c2ccccc2F)=Nc2ccc(O)c(O)c21	greater cytotoxicity

====

# Tested on: MES-SA
# EXPERIMENT: MTT assay, MES-SA cells
# Format: cell-based
# DETAILS: Homo sapiens, Table 4, B-3 series, 48 hrs
# Protocol: HL-60, Hep 3B, H460, MES-SA, MES-SAID x5 and Detroit 551 cells were treated with vehicle or test compounds for 48 h. The cell growth rate was determined by MTT (3-(4,5-dimethyl-thiazol-2-yl)-2,5-diphenyltetrazoliun bromide) reduction assay.
REPORTED_METRIC: pIC50
Please note pIC50 is a logarithmic value: minus log10 of concentration in mol/L. Answer with that number alone.

Prompt: Tell us which pIC50 value is on record for CN(C)c1ccc2c(c1)C(=O)CC(c1cccc(O)c1)=N2 [Compound 139]
Response: 6.03

====

Listed compounds paired with reported melting point

A selection of reference data follows.
COMPOUND	REPORTED_METRIC	VALUE
COc1ccc(C2=Nc3ccc(N4CCCC4)cc3C(=O)C2)cc1 [Compound 133]	melting point	312 to 313 °C
O=C1CC(c2ccccc2OCc2ccccc2)=Nc2ccc(N3CCCC3)cc21 [Compound 114]	melting point	293 to 295 °C
COc1cccc(C2=Nc3ccc(N4CCOCC4)cc3C(=O)C2)c1OC [Compound 126]	melting point	235 to 236 °C
COc1cc(O)cc(-c2cc(=O)c3cc4c(cc3[nH]2)OCO4)c1 [Compound 166]	melting point	> 300 °C
COc1ccc2c(c1OC)C(=O)CC(c1ccc(F)cc1)=N2 [Compound 18]	melting point	227 to 229 °C
COc1cc(C2=Nc3ccc(N4CCCC4)cc3C(=O)C2)ccc1OCc1ccccc1 [Compound 123]	melting point	304 to 306 °C
COc1cc2c(cc1O)N=C(c1ccccc1F)CC2=O [Compound 43]	melting point	277 to 279 °C
O=C1CC(c2cccc3c2OCO3)=Nc2ccc(N3CCOCC3)cc21 [Compound 124]	melting point	350 to 352 °C

Prompt: Respond only with melting point recorded for COc1ccccc1C1=Nc2ccc(N3CCCC3)cc2C(=O)C1 [Compound 131]
Response: 312 to 313 °C

====

# Tested on: KB
# EXPERIMENT: MTT assay, KB cells
# Type: cell-based
# DETAILS: Homo sapiens, Table 5
REPORTED_METRIC: IC50 (nM)
Give the number; nM is assumed, so skip it.

MOLECULE	UNIT_ABBREVIATION	IC50
O=c1cc(-c2cccc3ccccc23)[nH]c2cc3c(cc12)OCO3 [Compound 151]	nM	130

Prompt: Let me know recorded IC50 for O=c1cc(-c2coc3ccccc23)[nH]c2cc3c(cc12)OCO3 [Compound 156] , thanks.
Response: 1050

====

# System: Detroit 551
# EXPERIMENT: MTT assay, Detroit 551 normal human cells
# Format: cell-based
# DETAILS: Homo sapiens, Detroit 551; Table 4, B-3 series; 48 hrs
REPORTED_METRIC: pIC50
Friendly reminder that pIC50 comes from taking -log10 of the concentration in mol/L.

Example entries begin here.
COMPOUND	STUDY_TARGET	pIC50
CN(C)c1ccc2c(c1)C(=O)CC(c1ccc(O)cc1)=N2 [Compound 142]	Detroit 551	4.12
CN(C)c1ccc2c(c1)C(=O)CC(c1ccccc1O)=N2 [Compound 136]	Detroit 551	4.00

Let's switch to this compound now.
Prompt: Report pIC50, nothing else, for this compound: CN(C)c1ccc2c(c1)C(=O)CC(c1cccc(O)c1)=N2 [Compound 139]
Response: 5.00

====

# System: Hep3B
# EXPERIMENT: MTT assay, Hep 3B cells
# Assay type: cell-based
# DETAILS: Homo sapiens, Table 6, MTT
pIC50: −log10 of the molar value.
REPORTED_METRIC: pIC50

Prompt: Indicate its recorded pIC50; the compound in question is COc1cc(O)cc(-c2cc(=O)c3cc4c(cc3[nH]2)OCO4)c1 [Compound 166]
Response: < 4.30

====

# System: MES-SA
# EXPERIMENT: MTT assay, MES-SA cells
# Assay type: cell-based
# DETAILS: Homo sapiens, Table 3, B-2 series, 48 hrs
REPORTED_METRIC: IC50 (nM)
Lab book: enter the figure in nM, no units written.

COMPOUND	UNIT_ABBREVIATION	IC50
COc1cccc(C2=Nc3ccc(N4CCCC4)cc3C(=O)C2)c1OC	nM	802
O=C1CC(c2ccccc2O)=Nc2ccc(N3CCCC3)cc21	nM	846
O=C1CC(c2cccc(O)c2)=Nc2ccc(N3CCCC3)cc21	nM	734
COc1ccc(OC)c(C2=Nc3ccc(N4CCCC4)cc3C(=O)C2)c1	nM	229
COc1ccccc1C1=Nc2ccc(N3CCCC3)cc2C(=O)C1	nM	445
O=C1CC(c2cc(O)ccc2O)=Nc2ccc(N3CCOCC3)cc21 [Compound 144a]	nM	3690

Turning now to a further record.
Prompt: Give the reported IC50 for this compound. O=C1CC(c2cccc3c2OCO3)=Nc2ccc(N3CCCC3)cc21
Response: 100

====

# Tested on: HL-60, HCT-116, Hep3B, H-460
# EXPERIMENT: Cytotoxicity screen (MTT) against human cancer cell lines, results in words
# Assay type: cell-based
# DETAILS: comparison within sub-series or with CHM-2133

CHEMICAL_STRUCTURE	STUDY_TARGET	cytotoxicity (in words)
O=C1CC(c2ccc(F)cc2)=Nc2ccc3c(c21)OCO3	HL-60, HCT-116, Hep3B, H-460	weaker
COc1ccc2c(c1O)C(=O)CC(c1cccc(F)c1)=N2	HL-60, HCT-116, Hep3B, H-460	greater cytotoxicity
COc1cc2c(cc1O)N=C(c1ccccc1F)CC2=O	HL-60, HCT-116, Hep3B, H-460	greater cytotoxicity
O=C1CC(c2ccc(F)cc2)=Nc2ccc(O)c(O)c21	HL-60, HCT-116, Hep3B, H-460	weaker

====

# System: MES-SA/Dx5
# EXPERIMENT: MTT assay, MES-SA/Dx5 cells
# Assay type: cell-based, human
# DETAILS: Table 2, B-1 series; IC50 MES-SA/Dx5 over IC50 MES-SA
Hi, to clarify the labels: y covers Ratio Of SA/Dx5 from 4 upward, n covers anything below 4.

CHEMICAL_STRUCTURE	CLASS_NAME
COc1cccc(C2=Nc3ccc(N4CCOCC4)cc3C(=O)C2)c1OC	n
COc1ccccc1C1=Nc2ccc(N3CCOCC3)cc2C(=O)C1	n
O=C1CC(c2cccc(O)c2)=Nc2ccc(N3CCOCC3)cc21	n
O=C1CC(c2cccc3c2OCO3)=Nc2ccc(N3CCOCC3)cc21	n

Prompt: Please check the record O=C1CC(c2ccccc2O)=Nc2ccc(N3CCOCC3)cc21 and state if its Ratio Of SA/Dx5 is at or above 4.
Response: y

====

# System: HL-60
# EXPERIMENT: MTT assay, HL-60 cells
# Type: cell-based
# DETAILS: Homo sapiens, Table 3, B-2 series, 48 hrs
Property: log10(IC50); scope: individual molecules
// stored as log10 of IC50 expressed in µM

Past entries and their recorded results:
MOLECULE	log10(IC50)
COc1ccc(OC)c(C2=Nc3ccc(N4CCCC4)cc3C(=O)C2)c1	-2.22
COc1ccccc1C1=Nc2ccc(N3CCCC3)cc2C(=O)C1	-0.89
O=C1CC(c2ccccc2O)=Nc2ccc(N3CCCC3)cc21	-0.44
O=C1CC(c2cccc3c2OCO3)=Nc2ccc(N3CCCC3)cc21	-1.10
O=C1CC(c2cccc(O)c2)=Nc2ccc(N3CCCC3)cc21	-2.05
O=C1CC(c2cc(O)ccc2O)=Nc2ccc(N3CCOCC3)cc21 [Compound 144a]	0.21
COc1cc(C2=Nc3ccc(N4CCCC4)cc3C(=O)C2)ccc1O	-1.42
O=C1CC(c2ccc(O)cc2)=Nc2ccc(N3CCCC3)cc21	-1.40

Prompt: Recall the reported log10(IC50) of COc1cccc(C2=Nc3ccc(N4CCCC4)cc3C(=O)C2)c1OC when tested on HL-60.
Response: -0.28

====

# System: MES-SA/Dx5
# EXPERIMENT: MTT assay, MES-SA/Dx5 cells
# Format: cell-based, human
# DETAILS: Homo sapiens, MES-SA/Dx5; Table 3, B-2 series; 48 hrs
Response field label: string, one of t (IC50 strictly below 1000 nM) or f.

For orientation, consider the following solved cases.
MOLECULE	CLASS_NAME
O=C1CC(c2cc(O)ccc2O)=Nc2ccc(N3CCOCC3)cc21 [Compound 144a]	f
O=C1CC(c2cccc3c2OCO3)=Nc2ccc(N3CCCC3)cc21 [Compound 125]	t
COc1ccccc1C1=Nc2ccc(N3CCCC3)cc2C(=O)C1 [Compound 131]	t
COc1cccc(C2=Nc3ccc(N4CCCC4)cc3C(=O)C2)c1OC [Compound 127]	f
COc1ccc(OC)c(C2=Nc3ccc(N4CCCC4)cc3C(=O)C2)c1 [Compound 129]	t

Okay, next one:
Prompt: Confirm or reject: IC50 of O=C1CC(c2cccc(O)c2)=Nc2ccc(N3CCCC3)cc21 [Compound 138] lies strictly below 1000 nM
Response: t
